Data origin, for the record: paper PMC10184511

assay: In vitro 3D BBB permeability assay; format: in vitro ADME; conditions: human, pH 7
quantity.measured: Papp A→B at 30 min, 100 μM
Write your answer as a measured quantity: the number, then the unit.

Task: Read off the recorded Papp A→B at 30 min, 100 μM for Cn1nnc2c(C(N)=O)ncn2c1=O [TMZ, temozolomide]
Result: 2.67 ×10⁻⁶ cm/s
